molecular target: active BTK enzyme (Upstate 14-552) (Homo sapiens, UniProt Q06187); construct: purchased Upstate 14-552; test: In Vitro BTK Kinase Assay: Btk-PolyGAT-LS Assay; assay type: biochemical; conditions: ATP 10 μM, polyGAT 100 nM, BTK 0.25 nM, 30 minutes, TRF readout
Sequence (Q06187 whole entry): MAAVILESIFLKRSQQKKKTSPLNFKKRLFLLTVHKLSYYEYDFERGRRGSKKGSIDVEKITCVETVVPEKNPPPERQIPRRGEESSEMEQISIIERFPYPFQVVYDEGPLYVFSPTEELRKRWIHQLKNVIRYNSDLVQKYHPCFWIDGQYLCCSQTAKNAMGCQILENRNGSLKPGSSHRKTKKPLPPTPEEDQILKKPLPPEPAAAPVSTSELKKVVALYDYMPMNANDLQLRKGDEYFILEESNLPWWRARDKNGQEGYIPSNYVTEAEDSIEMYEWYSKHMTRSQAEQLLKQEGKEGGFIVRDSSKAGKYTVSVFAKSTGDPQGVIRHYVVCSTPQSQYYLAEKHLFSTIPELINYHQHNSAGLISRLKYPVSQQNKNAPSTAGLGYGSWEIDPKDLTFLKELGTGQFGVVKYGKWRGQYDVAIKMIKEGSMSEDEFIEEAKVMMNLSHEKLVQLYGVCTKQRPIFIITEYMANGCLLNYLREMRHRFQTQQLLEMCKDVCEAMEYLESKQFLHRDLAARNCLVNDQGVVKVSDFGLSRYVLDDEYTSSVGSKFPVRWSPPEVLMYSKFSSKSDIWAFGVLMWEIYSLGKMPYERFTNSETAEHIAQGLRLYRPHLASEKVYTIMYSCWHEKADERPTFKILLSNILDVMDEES
The following compounds are listed with their measured IC50 values.

C=CC(=O)N(C)C1CCCN(c2cnccc2-c2ccc(CNC(=O)c3nc(C(C)(C)C)co3)c(C)c2)C1 (centres unmarked) [Example 39]    ≤ 1 nM

Inquiry: Which IC50 is reported for this compound? C=CC(=O)N1CCC(c2cnccc2-c2ccc(CNC(=O)c3nc(C(C)(C)C)no3)c(C)c2)CC1 [Example 36]
Reply text: 1 to 10 nM

Inquiry: Which IC50 is reported for this compound? Cc1cc(-c2ncncc2N2CCN(C(=O)/C=C/CN(C)C)CC2)ccc1CNC(=O)c1noc(C(C)(C)C)n1 [Example 82]
Reply text: ≤ 1 nM

Inquiry: Which IC50 is reported for this compound? C=CC(=O)N(C1CC1)[C@@H]1CCCN(c2cnccc2-c2ccc(CNC(=O)c3cn(C(C)(C)C)nn3)c(C)c2)C1 (stereo in doubt) [Example 17]
Reply text: ≤ 1 nM

Inquiry: Which IC50 is reported for this compound? Cc1cc(-c2ccncc2N2CCN(C(=O)/C=C/CN(C)C)CC2)ccc1CNC(=O)c1noc(C2(CF)CC2)n1 [Example 93]
Reply text: ≤ 1 nM

Inquiry: Which IC50 is reported for this compound? CC#CC(=O)N1CCN(c2cnccc2-c2ccc(CNC(=O)c3noc(C(C)(C)C)n3)c(C)c2)CC1 [Example 62]
Reply text: ≤ 1 nM

Inquiry: Which IC50 is reported for this compound? C=CC(=O)N1CCC(c2cnccc2-c2ccc(CNC(=O)c3noc(C(C)(C)C)n3)c(C)c2)CC1 [Example 35]
Reply text: 1 to 10 nM

Inquiry: Which IC50 is reported for this compound? C=CC(=O)N(C)C1CCCN(c2cnccc2-c2ccc(CNC(=O)c3coc(C(C)(C)C)n3)c(C)c2)C1 (centres unmarked) [Example 37]
Reply text: ≤ 1 nM

Inquiry: Which IC50 is reported for this compound? C=CC(=O)N1CCCC(c2cnccc2-c2ccc(CNC(=O)c3noc(C4(C)CC4)n3)c(C)c2)C1 (centres unmarked) [Example 26]
Reply text: 1 to 10 nM

Inquiry: Which IC50 is reported for this compound? C=CC(=O)N1CCCC12CCN(c1cnccc1-c1ccc(CNC(=O)c3cn(C(C)(C)C)nn3)c(C)c1)C2 (centres unmarked) [Example 3]
Reply text: 1 to 10 nM

----------
Measured pIC50 on active BTK enzyme (Upstate 14-552) (Homo sapiens) follows.
pIC50: −log10 of the molar value.

Inquiry: Which pIC50 is reported for this molecule? Cc1cc(-c2c(C#N)cncc2N2CCN(C(=O)/C=C/CN(C)C)CC2)ccc1CNC(=O)c1cc(C(C)(C)C)on1 [Example 70]
Reply text: 8.00 to 9.00

Inquiry: Which pIC50 is reported for this molecule? C=CC(=O)N(C)C1CCCN(c2cnccc2-c2ccc(CNC(=O)c3cn(C(C)(C)C)nn3)c(C)c2)C1=O (stereo not shown) [Example 10]
Reply text: < 8.00

Inquiry: Which pIC50 is reported for this molecule? C=CC(=O)N1CCC2(CCN(c3cnccc3-c3ccc(CNC(=O)c4cn(C)nc4C(F)F)c(C)c3)C2)C1 (stereo not shown) [Example 5]
Reply text: < 8.00

Inquiry: Which pIC50 is reported for this molecule? Cc1cc(-c2ccncc2N2CCN(C(=O)/C=C/CN3CC(F)C3)CC2)ccc1CNC(=O)c1noc(C(C)(C)C)n1 [Example 64]
Reply text: 8.00 to 9.00

----------
The following compounds are listed with their measured IC50 values.
molecular target: active BTK enzyme (Upstate 14-552) (Homo sapiens, UniProt Q06187)

Consider the worked cases shown below.
C=C(F)C(=O)N1CCN(c2cncnc2-c2ccc(CNC(=O)c3noc(C(C)(C)C)n3)c(C)c2)CC1 [Example 81]    1 to 10 nM
C=CC(=O)N1CCN(c2cncnc2-c2ccc(CNC(=O)c3nnn(C(C)(C)C)n3)c(C)c2)CC1 [Example 79]    ≤ 1 nM
CNC/C=C/C(=O)N1CCN(c2cnccc2-c2ccc(CNC(=O)c3noc(C(C)(C)C)n3)c(C)c2)CC1 [Example 68]    1 to 10 nM

From here, focus on the item given below.
Inquiry: Which IC50 is reported for this compound? C=CC(=O)N(C)C1CCCN(c2cnccc2-c2ccc(CNC(=O)c3ccc(C(F)(F)F)nc3)c(C)c2)C1 (stereo not shown) [Example 41]
Reply text: 1 to 10 nM
